For each record, write down the corresponding MIC.
System: Mycobacterium tuberculosis
TEST_DESCRIPTION: Antimicrobial activity against Mycobacterium tuberculosis H37Rv ATCC 27294 harboring pFCA-lux AB gene measured under anaerobic condition after 11 days by luminescence analysis
Assay type: functional
CONDITION_DESCRIPTION: H37Rv ATCC 27294, 264 h
Answers are plain numbers, in µM.

O=C(O[C@@H]1COc2nc([N+](=O)[O-])cn2C1)N1CCC(Oc2ccc(C(F)(F)F)nc2)CC1 = 27

For each entry beneath this line, provide reported MIC.
1. O=C(Cc1ccc(-c2ccc(F)cc2)cc1)N[C@@H]1COc2nc([N+](=O)[O-])cn2C1
2. CN([C@@H]1COc2nc([N+](=O)[O-])cn2C1)S(=O)(=O)c1ccc(OC(F)(F)F)cc1

Result:
1: 11; 2: 22

Values were extracted from ChEMBL document CHEMBL1944507.
